# growth inhibition per record follows
Assay: NCI Yeast Anticancer Drug Screen. Data for the sgs1 mgt1 strain (AID 161);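 note: 0% = growth of cultures given vehicle only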
Details: S. cerevisiae sgs1 mgt1 strain, at 50.0 µM (retest, dose inferred, filed as 5.0), hits give high values
The panel holds about 79,000 compounds, 15% with a hit somewhere; the sample as a whole holds those more often.
Unit % implied. Number only.

Exercise: Indicate the recorded growth inhibition value for this compound: `COc1ccc(N=CN(C)C)c(C)c1`
Solution: 97

Exercise: Tell me measured growth inhibition for O=C(c1ccc([N+](=O)[O-])cc1)C1N=NCC1c1ccccc1 (stereo unspecified) please.
Solution: 27

Exercise: In one line, give reported growth inhibition of the entry COc1cccc2c1C(=O)c1c(O)c3c(c(O)c1C2=O)CC(O)(C(O)CO)CC3OC1CC(N2CCOCC2)C(O)C(C)O1 (stereo unspecified) .
Solution: 90
